Here, each record is paired with measured IC50 data.
- STUDY TARGET: one or more of HDAC-4, HDAC-5, HDAC-6, HDAC-7, HDAC-8, HDAC-9, HDAC-10 and HDAC-11
- PROTOCOL SUMMARY: Inhibition of histone deacetylase enzymatic activity (summary statement over isoforms)
- MEASUREMENT SETUP: Table 3, selected examples; HDAC isoform not given

Recorded results for 2 molecules are shown here.
[
  {
    "MOLECULE": "O=C(NO)C(Sc1nc2ccccc2s1)c1ccccc1 (centres unmarked) [Compound 1-24]",
    "IC50": "< 1000 nM"
  },
  {
    "MOLECULE": "Cc1cc(C(=O)Nc2cccc(C(C(=O)NO)c3ccccc3)c2)c(C)o1 (centres unmarked) [Compound 2-64]",
    "IC50": "1000 to 15000 nM"
  }
]

Recorded IC50 for O=C(NO)C(c1ccccc1)c1ccc(OCCN2CCCC2)cc1 (centres unmarked) [Compound 5-96] , please?
< 1000 nM

Recorded IC50 for COc1ccc(COc2cccc(C(C(=O)NO)c3ccccc3)c2)cc1 (centres unmarked) [Compound 3-6] , please?
< 1000 nM

###

Here, each record is paired with measured IC50 data.
- STUDY TARGET: one or more of HDAC-4, HDAC-5, HDAC-6, HDAC-7, HDAC-8, HDAC-9, HDAC-10 and HDAC-11
- PROTOCOL SUMMARY: Inhibition of histone deacetylase enzymatic activity (summary statement over isoforms)
- MEASUREMENT SETUP: Table 3, selected examples; HDAC isoform not given

[
  {
    "COMPOUND": "O=C(NO)C(c1ccccc1)c1cccc(NCC2CCCCC2)c1 (centres unmarked)",
    "IC50": "1000 to 15000 nM"
  },
  {
    "COMPOUND": "Cc1cc(C(=O)Nc2ccc(C(C(=O)NO)c3ccccc3)cc2)c(C)o1 (centres unmarked)",
    "IC50": "< 1000 nM"
  }
]

Recorded IC50 for CC(C)CCOc1ccc(C(C(=O)NO)c2ccccc2)cc1 (centres unmarked) , please?
1000 to 15000 nM

Recorded IC50 for O=C(NO)C(c1ccccc1)c1cccc(N2CCC(N3CCCC3)CC2)c1 (centres unmarked) , please?
< 1000 nM

Recorded IC50 for CCc1ccc(-c2cccc(C(C(=O)NO)c3ccccc3)c2)cc1 (centres unmarked) , please?
< 1000 nM

###

- STUDY TARGET: one or more of HDAC-4, HDAC-5, HDAC-6, HDAC-7, HDAC-8, HDAC-9, HDAC-10 and HDAC-11
- PROTOCOL SUMMARY: Inhibition of histone deacetylase enzymatic activity (summary statement over isoforms)
- MEASUREMENT SETUP: Table 3, selected examples; HDAC isoform not given
QUANTITY KIND: IC50

Recorded results for 4 compounds are shown here.
[
  {
    "COMPOUND": "O=C(NO)C(c1ccccc1)c1cccc(Nc2ccccc2)c1 (centres unmarked) [Compound 3-73]",
    "QUANTITY KIND": "IC50",
    "OBSERVED VALUE": "1000 to 15000 nM"
  },
  {
    "COMPOUND": "CC(C)(C)C(=O)N1CCCN(C(C(=O)NO)c2ccccc2)CC1 (centres unmarked) [Compound 2-24]",
    "QUANTITY KIND": "IC50",
    "OBSERVED VALUE": "1000 to 15000 nM"
  },
  {
    "COMPOUND": "CCC(CC)COc1ccc(C(C(=O)NO)c2ccccc2)cc1 (centres unmarked) [Compound 3-55]",
    "QUANTITY KIND": "IC50",
    "OBSERVED VALUE": "< 1000 nM"
  },
  {
    "COMPOUND": "O=C(NO)C(c1ccccc1)N1CCN(C(=O)c2ccccc2)CC1 (centres unmarked) [Compound 5-42]",
    "QUANTITY KIND": "IC50",
    "OBSERVED VALUE": "1000 to 15000 nM"
  }
]

Pending compound:
Recorded IC50 for COCCN1CCN(c2ccc(C(C(=O)NO)c3ccccc3)cc2)CC1 (centres unmarked) [Compound 5-100] , please?
< 1000 nM
